Origin of the recorded values: patent US20230080224A1

- target_under_test: T1, ALPI (screening and SPR/ELISA protein) (UniProt P09923 20-503, limits assumed)
- T1 sequence (looked up): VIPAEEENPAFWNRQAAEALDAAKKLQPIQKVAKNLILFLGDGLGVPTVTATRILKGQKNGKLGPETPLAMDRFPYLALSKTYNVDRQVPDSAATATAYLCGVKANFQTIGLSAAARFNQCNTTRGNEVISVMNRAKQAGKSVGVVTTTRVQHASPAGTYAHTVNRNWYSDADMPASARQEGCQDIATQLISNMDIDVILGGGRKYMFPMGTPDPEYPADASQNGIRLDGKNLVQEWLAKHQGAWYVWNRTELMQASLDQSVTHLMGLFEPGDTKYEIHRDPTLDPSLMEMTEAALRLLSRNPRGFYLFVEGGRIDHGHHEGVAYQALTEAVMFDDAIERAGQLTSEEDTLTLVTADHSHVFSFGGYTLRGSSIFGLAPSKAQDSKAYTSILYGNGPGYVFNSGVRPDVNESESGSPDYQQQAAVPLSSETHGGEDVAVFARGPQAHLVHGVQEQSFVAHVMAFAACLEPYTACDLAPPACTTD
- assay_explanation: screen of rabbit B-cell clones by ELISA and FACS

binder	binding result
AB2C130 (antibody, V domains shown, Rabbit antibody cloned from a single B cell) VH: QSLEESGGDLVKPGASLTLTCTASGFSFSSGYWICWVRQAPGKGLEWIACIYTGVGATYYASWAKGRFTISKTSSTTVTLQMTSLTAADTATYFCARDFGGSSGFYFNLWGPGTLVTVSS VL: FELTQTPSSVEAAVGATVTIKCQASQSISNALAWYQQKPGQPPKLLIYSASTLESGVPSRFKGSGSGTEFTLTISDLECADAATYYCQNYYGSTSSSYGVAFGGGTEVVVK	no binding
AB1C39 (antibody, V domains shown, Rabbit antibody cloned from a single B cell) VH: QSLEESGGDLVKPGASLTLTCTASGFSFSSSYYMCWVRQAPGKGLEWIACIYAGSSGGTYYASWAKGRFTISKTSSTTVTLQMTSLTAADTATYFCARAFSYYYSDGYTGYAYGLWGPGTLVTVSS VL: DIVMTQTPASVEAAVGGTVTIKCQASQSISSYLAWYQQKPGQPPKLLIYRASTLASGVPSRFKGSGSGTQFTLTISDLECADAATYYCQGAYYSSSSSYGFGGGTEVVVK	no binding
